# testSystem: UniProt:Q9UBE8
# Sequence (Q9UBE8 whole entry, looked up): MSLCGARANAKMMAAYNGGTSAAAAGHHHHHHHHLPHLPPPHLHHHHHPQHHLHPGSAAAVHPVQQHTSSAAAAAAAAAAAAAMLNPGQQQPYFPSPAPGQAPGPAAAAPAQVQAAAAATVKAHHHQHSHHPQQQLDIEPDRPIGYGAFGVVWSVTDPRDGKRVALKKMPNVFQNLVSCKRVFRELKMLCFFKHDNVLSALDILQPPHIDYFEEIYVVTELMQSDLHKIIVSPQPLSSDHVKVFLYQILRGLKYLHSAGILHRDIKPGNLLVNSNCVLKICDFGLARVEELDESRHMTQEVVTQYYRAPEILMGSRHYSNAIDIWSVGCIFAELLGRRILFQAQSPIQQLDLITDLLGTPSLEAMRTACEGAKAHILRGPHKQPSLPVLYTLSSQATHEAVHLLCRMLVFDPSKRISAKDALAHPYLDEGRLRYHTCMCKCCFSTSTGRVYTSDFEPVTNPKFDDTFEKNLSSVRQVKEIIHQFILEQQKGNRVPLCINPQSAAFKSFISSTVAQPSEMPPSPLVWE
# assayProtocol: KINOMEscan competition binding
# cond: compound 10.0 µM
kinase still bound, per cent of control overview
Quick note: give the figure in %, leave out the unit.

Sample answers from the record:
INSERT INTO results (smilesdata, measured) VALUES
  ('CS(=O)(=O)N1CCN(Cc2cc3nc(-c4cccc5[nH]ncc45)nc(N4CCOCC4)c3s2)CC1', 100),
  ('COc1cc2ncn(-c3cc(OCc4ccccc4C(F)(F)F)c(C(N)=O)s3)c2cc1OC', 68),
  ('NC(=O)Nc1cc(-c2cccc(F)c2)sc1C(=O)N[C@@H]1CCCNC1', 81),
  ('CN(C)C/C=C/C(=O)Nc1ccc(C(=O)Nc2cccc(Nc3nccc(-c4cccnc4)n3)c2)cc1', 82),
  ('COc1cc(N2CCN(C)CC2)ccc1Nc1ncc2c(n1)N(C)c1ccccc1C(=O)N2C', 100),
  ('CCN(CC)CCCCNc1ncc2c(n1)N(C)C(=O)N(c1c(Cl)c(OC)cc(OC)c1Cl)C2', 100);

kinase still bound, per cent of control lookup needed for CCN(CC)CCCCNc1ncc2cc(-c3cc(OC)cc(OC)c3)c(NC(=O)NC(C)(C)C)nc2n1 , thanks.
100

Entry under review: COc1cc2ncnc(-n3nc(-c4ccccn4)nc3N)c2cc1OC . Reported kinase still bound, per cent of control?
6.6

Could you tell me which kinase still bound, per cent of control is on file for COc1ccc(N(C(=O)Oc2c(C)cccc2C)c2ccnc(Nc3ccc(N4CCN(C)CC4)cc3)n2)c(OC)c1 ?
3.9

Tell me the measured kinase still bound, per cent of control of N#CCNC(=O)c1ccc(-c2ccnc(Nc3ccc(N4CCOCC4)cc3)n2)cc1 , please.
86

# get_value(readout='kinase still bound, per cent of control', item= C=CC(=O)Nc1cc(-n2c(=O)ccc3cnc4ccc(-c5cn[nH]c5)cc4c32)ccc1C )
63

Look up kinase still bound, per cent of control: O=C(Nc1cccc(Nc2ncc(Br)c(NCCc3cnc[nH]3)n2)c1)N1CCCC1
100

Look up kinase still bound, per cent of control: O=c1cc(N2CCOCC2)oc2c(-c3cccc4c3sc3ccccc34)cccc12
88

* * *

# kinase still bound, per cent of control per entry
# testSystem: UniProt Q00537
# Sequence (Q00537 whole entry, looked up): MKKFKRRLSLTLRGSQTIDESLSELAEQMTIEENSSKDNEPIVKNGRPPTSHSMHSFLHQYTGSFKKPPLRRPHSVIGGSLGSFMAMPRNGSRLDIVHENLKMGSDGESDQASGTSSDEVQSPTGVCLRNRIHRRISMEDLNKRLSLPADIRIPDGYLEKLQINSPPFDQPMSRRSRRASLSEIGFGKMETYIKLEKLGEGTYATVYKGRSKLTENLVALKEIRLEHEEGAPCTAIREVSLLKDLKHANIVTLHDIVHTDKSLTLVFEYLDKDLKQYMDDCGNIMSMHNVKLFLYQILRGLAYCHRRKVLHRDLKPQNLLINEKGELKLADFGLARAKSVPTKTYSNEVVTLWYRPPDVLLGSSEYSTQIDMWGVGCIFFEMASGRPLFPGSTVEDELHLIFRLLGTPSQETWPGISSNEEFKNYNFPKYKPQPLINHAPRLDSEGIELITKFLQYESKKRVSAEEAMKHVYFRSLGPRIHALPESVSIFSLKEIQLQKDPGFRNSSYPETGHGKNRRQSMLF
# assayProtocol: KINOMEscan competition binding
# cond: compound 10.0 µM
Reply with just the number (in %).

INSERT INTO results (smilesdata, measured) VALUES
  ('C=CC(=O)Nc1cc(-n2c(=O)ccc3cnc4ccc(-c5cn[nH]c5)cc4c32)ccc1C', 92),
  ('CN(C)C/C=C/C(=O)Nc1ccc(C(=O)Nc2cccc(Nc3nccc(-c4cccnc4)n3)c2)cc1', 92),
  ('COCC(=O)NC/C=C/c1ccc2ncnc(Nc3ccc(Oc4ccc(C)nc4)c(C)c3)c2c1', 100),
  ('CS(=O)(=O)N1CCN(Cc2cc3nc(-c4cccc5[nH]ncc45)nc(N4CCOCC4)c3s2)CC1', 100),
  ('COc1cc(C(=O)N2CCC(N3CCN(C)CC3)CC2)ccc1Nc1ncc2c(n1)N(C)c1ccccc1C(=O)N2C', 83);

# lookup: kinase still bound, per cent of control of COc1cc2ncnc(-n3nc(-c4ccccn4)nc3N)c2cc1OC
59

For CNC(=O)c1ccc(Nc2cc(Nc3ccccc3S(=O)(=O)C(C)C)c3cc[nH]c3n2)nc1 , what is its reported kinase still bound, per cent of control?
100

Recorded kinase still bound, per cent of control of O=c1cc(N2CCOCC2)oc2c(-c3cccc4c3sc3ccccc34)cccc12 , please.
100

Item CCN1CCN(C(=O)Cc2ccc(Nc3ncc(F)c(Nc4ccc(C(=O)Nc5ccccc5Cl)cc4)n3)cc2)CC1 has what recorded kinase still bound, per cent of control?
35

Consider the compound shown here: COc1cc(N2CCN(C)CC2)ccc1Nc1ncc2c(n1)N(C)c1ccccc1C(=O)N2C What is its recorded kinase still bound, per cent of control?
100

Need kinase still bound, per cent of control, item NC(=O)Nc1cc(-c2cccc(F)c2)sc1C(=O)N[C@@H]1CCCNC1
84

Look at this compound and give its reported kinase still bound, per cent of control. COc1cc2ncn(-c3cc(OCc4ccccc4C(F)(F)F)c(C(N)=O)s3)c2cc1OC
100

Name the reported kinase still bound, per cent of control value associated with the compound C[C@@H](Oc1cc(-c2cnn(C3CCNCC3)c2)cnc1N)c1c(Cl)ccc(F)c1Cl
62

# input compound: N#CCNC(=O)c1ccc(-c2ccnc(Nc3ccc(N4CCOCC4)cc3)n2)cc1 ; wanted: its kinase still bound, per cent of control
55

Fill in: kinase still bound, per cent of control of CCN(CC)CCCCNc1ncc2c(n1)N(C)C(=O)N(c1c(Cl)c(OC)cc(OC)c1Cl)C2 is ___
100

What value of measured kinase still bound, per cent of control is listed for Cc1n[nH]c2ccc(-c3cncc(OC[C@@H](N)Cc4c[nH]c5ccccc45)c3)cc12 ?
25

Name the recorded kinase still bound, per cent of control for O=C1NC(=O)/C(=C/c2ccc3nccc(-c4ccncc4)c3c2)S1 .
59

Given the compound O=C(Nc1cccc(Nc2ncc(Br)c(NCCc3cnc[nH]3)n2)c1)N1CCCC1 , what is its reported kinase still bound, per cent of control?
77

Given the entry CCN(CC)CCCCNc1ncc2cc(-c3cc(OC)cc(OC)c3)c(NC(=O)NC(C)(C)C)nc2n1 , report its measured kinase still bound, per cent of control.
100

* * *

# testSystem: SRMS (human)
# assayProtocol: KINOMEscan competition binding
# cond: compound 10.0 µM
Below, each entry is listed with its recorded kinase still bound, per cent of control.
Please state the figure in %; there is no need to write the unit.

INSERT INTO results (smilesdata, testsystem, measured) VALUES
  ('C[C@@H](Oc1cc(-c2cnn(C3CCNCC3)c2)cnc1N)c1c(Cl)ccc(F)c1Cl', 'SRMS (human)', 54),
  ('O=C(Nc1cccc(Nc2ncc(Br)c(NCCc3cnc[nH]3)n2)c1)N1CCCC1', 'SRMS (human)', 37),
  ('COc1cc2ncnc(-n3nc(-c4ccccn4)nc3N)c2cc1OC', 'SRMS (human)', 27),
  ('COc1cc2ncn(-c3cc(OCc4ccccc4C(F)(F)F)c(C(N)=O)s3)c2cc1OC', 'SRMS (human)', 58),
  ('NC(=O)Nc1cc(-c2cccc(F)c2)sc1C(=O)N[C@@H]1CCCNC1', 'SRMS (human)', 0),
  ('COc1cc(N2CCN(C)CC2)ccc1Nc1ncc2c(n1)N(C)c1ccccc1C(=O)N2C', 'SRMS (human)', 100),
  ('CCN(CC)CCCCNc1ncc2c(n1)N(C)C(=O)N(c1c(Cl)c(OC)cc(OC)c1Cl)C2', 'SRMS (human)', 100),
  ('COc1ccc(N(C(=O)Oc2c(C)cccc2C)c2ccnc(Nc3ccc(N4CCN(C)CC4)cc3)n2)c(OC)c1', 'SRMS (human)', 8.6),
  ('COc1cc(C(=O)N2CCC(N3CCN(C)CC3)CC2)ccc1Nc1ncc2c(n1)N(C)c1ccccc1C(=O)N2C', 'SRMS (human)', 77),
  ('CCN(CC)CCCCNc1ncc2cc(-c3cc(OC)cc(OC)c3)c(NC(=O)NC(C)(C)C)nc2n1', 'SRMS (human)', 100);

# ---- query molecule ----
So what does the record say about kinase still bound, per cent of control for O=C1NC(=O)/C(=C/c2ccc3nccc(-c4ccncc4)c3c2)S1 ?
67

* * *

# testSystem: IRAK1 (human)
# assayProtocol: KINOMEscan competition binding
# cond: compound 10.0 µM
The reader will find reported kinase still bound, per cent of control values listed item by item below.
Respond with the bare value in %.

Sample answers from the record:
INSERT INTO measurements (smilesdata, testsystem, propertyname, valueunits, measured) VALUES
  ('CS(=O)(=O)N1CCN(Cc2cc3nc(-c4cccc5[nH]ncc45)nc(N4CCOCC4)c3s2)CC1', 'IRAK1 (human)', 'kinase still bound, per cent of control', '%', 100),
  ('O=C(Nc1cccc(Nc2ncc(Br)c(NCCc3cnc[nH]3)n2)c1)N1CCCC1', 'IRAK1 (human)', 'kinase still bound, per cent of control', '%', 0.25);

Bench note: what kinase still bound, per cent of control did COc1cc(N2CCN(C)CC2)ccc1Nc1ncc2c(n1)N(C)c1ccccc1C(=O)N2C show?
100

Find the recorded kinase still bound, per cent of control belonging to CNC(=O)c1cc(Oc2ccc(NC(=O)Nc3ccc(Cl)c(C(F)(F)F)c3)cc2)ccn1 and report it.
70

Would you kindly share the measured kinase still bound, per cent of control for O=c1cc(N2CCOCC2)oc2c(-c3cccc4c3sc3ccccc34)cccc12 ?
96

* * *

This listing pairs compounds with measured kinase still bound, per cent of control.
# System: EGFR (human), P00533 [752-759 del]
# Sequence (P00533 whole entry, looked up, stated change not applied): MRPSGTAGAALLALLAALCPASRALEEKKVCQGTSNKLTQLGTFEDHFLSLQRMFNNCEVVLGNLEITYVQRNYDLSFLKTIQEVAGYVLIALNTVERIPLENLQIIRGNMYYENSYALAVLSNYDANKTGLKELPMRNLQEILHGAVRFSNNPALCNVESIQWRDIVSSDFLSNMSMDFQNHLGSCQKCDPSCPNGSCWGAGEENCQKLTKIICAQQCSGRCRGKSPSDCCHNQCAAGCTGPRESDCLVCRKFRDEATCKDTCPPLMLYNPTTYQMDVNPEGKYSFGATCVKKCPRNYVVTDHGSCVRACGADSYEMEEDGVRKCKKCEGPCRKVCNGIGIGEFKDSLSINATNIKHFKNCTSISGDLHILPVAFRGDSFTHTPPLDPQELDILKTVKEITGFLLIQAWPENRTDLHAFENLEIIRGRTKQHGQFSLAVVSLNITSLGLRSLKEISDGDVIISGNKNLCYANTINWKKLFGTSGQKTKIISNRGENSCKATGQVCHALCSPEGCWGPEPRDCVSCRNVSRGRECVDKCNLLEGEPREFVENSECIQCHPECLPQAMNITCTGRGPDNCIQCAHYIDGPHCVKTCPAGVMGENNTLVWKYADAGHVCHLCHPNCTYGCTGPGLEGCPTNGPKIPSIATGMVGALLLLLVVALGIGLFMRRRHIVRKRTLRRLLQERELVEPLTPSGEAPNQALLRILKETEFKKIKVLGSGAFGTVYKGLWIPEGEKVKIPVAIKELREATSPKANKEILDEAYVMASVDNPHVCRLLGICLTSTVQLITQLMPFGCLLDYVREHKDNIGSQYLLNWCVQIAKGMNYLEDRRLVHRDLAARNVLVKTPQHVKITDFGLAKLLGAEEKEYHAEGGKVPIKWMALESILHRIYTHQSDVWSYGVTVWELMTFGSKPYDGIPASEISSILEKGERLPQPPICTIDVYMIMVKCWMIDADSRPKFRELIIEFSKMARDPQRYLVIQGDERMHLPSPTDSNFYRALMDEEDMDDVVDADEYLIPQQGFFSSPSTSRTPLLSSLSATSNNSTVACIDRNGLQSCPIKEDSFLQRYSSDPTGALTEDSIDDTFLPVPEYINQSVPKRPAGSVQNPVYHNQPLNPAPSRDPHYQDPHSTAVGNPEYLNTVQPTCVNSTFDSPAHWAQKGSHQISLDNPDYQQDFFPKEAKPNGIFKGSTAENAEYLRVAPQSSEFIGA
# assayProtocol: KINOMEscan competition binding
# cond: compound 10.0 µM
All answers are understood in %, so give the number only.

Worked cases, answers included:
INSERT INTO assay_data (smilesdata, valueunits, measured) VALUES
  ('C=CC(=O)Nc1ccc(C(=O)c2sc(Nc3ccc(N4CCN(C)CC4)cc3OC)nc2N)cc1', '%', 53),
  ('COc1ccc(N(C(=O)Oc2c(C)cccc2C)c2ccnc(Nc3ccc(N4CCN(C)CC4)cc3)n2)c(OC)c1', '%', 1),
  ('COc1cc2ncnc(Nc3cccc(Cl)c3)c2cc1OC', '%', 2.5),
  ('C=CC(=O)Nc1cc(NC(=O)c2ccc(C)c(NC(=O)c3ccno3)c2)cc(C(F)(F)F)c1', '%', 100);

Now consider the entry below.
kinase still bound, per cent of control lookup needed for N#Cc1cc(-c2ccnc(Nc3ccc(-n4cnc(-c5cccnc5)n4)cc3)n2)cc(N2CCOCC2)c1 , thanks.
87
